target: D(3) dopamine receptor (Homo sapiens)
Sequence (P35462 whole entry): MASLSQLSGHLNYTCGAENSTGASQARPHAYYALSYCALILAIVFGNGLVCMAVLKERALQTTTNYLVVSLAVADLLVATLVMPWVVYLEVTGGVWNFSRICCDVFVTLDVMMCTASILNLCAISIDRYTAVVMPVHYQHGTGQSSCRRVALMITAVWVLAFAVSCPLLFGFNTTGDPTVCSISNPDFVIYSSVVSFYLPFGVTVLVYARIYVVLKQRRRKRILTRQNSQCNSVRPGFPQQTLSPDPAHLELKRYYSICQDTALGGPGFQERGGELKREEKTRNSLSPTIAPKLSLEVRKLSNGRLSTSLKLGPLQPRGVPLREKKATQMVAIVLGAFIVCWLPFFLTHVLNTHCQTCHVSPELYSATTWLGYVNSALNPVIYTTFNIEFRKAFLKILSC
pKi: −log10 of the molar value.
Quick rule: pKi of at least 9 means class 1, below that means class 0.

Consider the following illustrative entries.
| Molecule | System Under Test | Label |
| --- | --- | --- |
| CCS(=O)(=O)c1ccc(OC)c(-c2ccc(CN3CCCCCC3c3cccc(OC)c3)[nH]2)c1 (centres undefined) | D(3) dopamine receptor (Homo sapiens) | class 0 |
| CCN(Cc1ccc(OC)cc1)Cc1ccc(-c2cc(S(=O)(=O)CC)ccc2OC)[nH]1 | D(3) dopamine receptor (Homo sapiens) | class 1 |
| CCS(=O)(=O)c1ccc(OC)c(-c2ccc(CN3CCCCCC3c3ccccc3C)[nH]2)c1 (centres undefined) | D(3) dopamine receptor (Homo sapiens) | class 0 |
| CCN(Cc1cccc(OC)c1)Cc1ccc(-c2cc(S(=O)(=O)CC)ccc2OC)[nH]1 | D(3) dopamine receptor (Homo sapiens) | class 0 |
| CCN(Cc1ccc(C)cc1)Cc1ccc(-c2cc(S(=O)(=O)CC)ccc2OC)[nH]1 | D(3) dopamine receptor (Homo sapiens) | class 1 |

Next up:
Q: Tell me whether pKi is at least 9 here: `CCN(Cc1ccc(Cl)cc1)Cc1ccc(-c2cc(S(=O)(=O)CC)ccc2OC)[nH]1`
Ans: class 1

---

biological target: Dopamine receptors; D2 & D3 (Homo sapiens) (UniProt P14416+P35462); assay: Ratio of D3 receptor to the D2 receptor; format: protein assay
Quick rule: Ratio of at least 4 means Fulfilled, below that means Not fulfilled.

Consider the following illustrative entries.
| Compound | Label |
| --- | --- |
| CCN(Cc1ccc(OC)cc1)Cc1ccc(-c2cc(S(=O)(=O)CC)ccc2OC)[nH]1 | Fulfilled |
| CCS(=O)(=O)c1ccc(OC)c(-c2ccc(CN3CCCCCC3c3ccc(C)cc3)[nH]2)c1 (centres undefined) | Fulfilled |
| CCN(Cc1ccccc1)Cc1ccc(-c2cc(S(=O)(=O)CC)ccc2OC)[nH]1 | Not fulfilled |
| CCN(Cc1ccc(OC)c(OC)c1)Cc1ccc(-c2cc(S(=O)(=O)CC)ccc2OC)[nH]1 | Not fulfilled |
| CCN(Cc1ccc2c(c1)OCO2)Cc1ccc(-c2cc(S(=O)(=O)CC)ccc2OC)[nH]1 | Fulfilled |

Q: Tell me whether Ratio is at least 4 here: CCS(=O)(=O)c1ccc(OC)c(-c2ccc(CN3CCCCCC3c3ccccc3)[nH]2)c1 (centres undefined)
Ans: Fulfilled

Q: Tell me whether Ratio is at least 4 here: CCS(=O)(=O)c1ccc(OC)c(-c2ccc(CN3CCCCCC3c3ccc(OC)cc3)[nH]2)c1 (centres undefined)
Ans: Fulfilled

Q: Tell me whether Ratio is at least 4 here: `CCN(Cc1ccc(-c2cc(S(=O)(=O)CC)ccc2OC)[nH]1)Cc1ccccc1Cl`
Ans: Not fulfilled

---

// reported Ratio per item
target: Dopamine receptors; D2 & D3 (Homo sapiens) (UniProt P14416+P35462); assay: Ratio of D3 receptor to the D2 receptor; assay type: protein assay
Keep it simple and answer with nothing but the number.

Look over these answered cases.
| Molecule | Ratio |
| --- | --- |
| CCS(=O)(=O)c1ccc(OC)c(-c2ccc(C3CCCN3Cc3ccccc3)[nH]2)c1 (stereo not drawn) | 4 |
| CCN(Cc1cccc(Cl)c1)Cc1ccc(-c2cc(S(=O)(=O)CC)ccc2OC)[nH]1 | 4 |
| CCN(Cc1ccc(-c2cc(S(=O)(=O)CC)ccc2OC)[nH]1)[C@H](C)c1ccccc1 | 10 |
| CCN(Cc1ccc(-c2cc(S(=O)(=O)CC)ccc2OC)[nH]1)Cc1ccccc1C | 2 |
| CCN(Cc1ccc(C)cc1)Cc1ccc(-c2cc(S(=O)(=O)CC)ccc2OC)[nH]1 | 2 |
| CCN(Cc1ccc(-c2cc(S(=O)(=O)CC)ccc2OC)[nH]1)C1CCCc2ccccc21 (stereo not drawn) | 3 |
| CCS(=O)(=O)c1ccc(OC)c(-c2ccc(CN3CCc4ccccc4C3)[nH]2)c1 | 3 |

In the following, a different molecule is considered.
Q: Recorded Ratio for `CCN(Cc1ccc(-c2cc(S(=O)(=O)CC)ccc2OC)[nH]1)[C@@H](C)c1ccccc1` , please?
Ans: 10

---

molecular target: D(2) dopamine receptor (Homo sapiens, UniProt P14416); assay: Binding affinity, displacement of [125I]iodosulpiride from human Dopamine receptor D2 expressed in CHO cells
Sequence (P14416 whole entry): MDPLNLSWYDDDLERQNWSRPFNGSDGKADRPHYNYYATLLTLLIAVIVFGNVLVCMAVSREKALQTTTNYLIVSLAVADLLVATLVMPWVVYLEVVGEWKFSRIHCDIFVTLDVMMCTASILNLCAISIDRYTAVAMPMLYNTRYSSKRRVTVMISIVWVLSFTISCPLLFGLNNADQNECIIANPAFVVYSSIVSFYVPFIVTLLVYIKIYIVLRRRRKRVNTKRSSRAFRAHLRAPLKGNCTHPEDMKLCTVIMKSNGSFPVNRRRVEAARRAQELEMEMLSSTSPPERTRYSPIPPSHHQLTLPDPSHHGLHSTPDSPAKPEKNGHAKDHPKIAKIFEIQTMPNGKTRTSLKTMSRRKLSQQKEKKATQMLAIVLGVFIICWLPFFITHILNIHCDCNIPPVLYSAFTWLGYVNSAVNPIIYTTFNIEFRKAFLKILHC
Label yes (1) when Ki < 30 nM; otherwise no (0).

| Compound | Label |
| --- | --- |
| CCS(=O)(=O)c1ccc(OC)c(-c2ccc(CN3CCCCCC3c3cccc(OC)c3)[nH]2)c1 (stereo not drawn) | no (0) |
| CCS(=O)(=O)c1ccc(OC)c(-c2ccc(CN3CCCCCC3c3ccccc3C)[nH]2)c1 (stereo not drawn) | no (0) |
| CCN(Cc1ccc(-c2cc(S(=O)(=O)CC)ccc2OC)[nH]1)Cc1ccccc1C | yes (1) |
| CCS(=O)(=O)c1ccc(OC)c(-c2ccc(CN3CCc4ccccc4C3)[nH]2)c1 | no (0) |

Q: A record lists `CCN1[C@@H](c2ccc(-c3cc(S(=O)(=O)CC)ccc3OC)[nH]2)CC[C@H]1c1ccccc1` . Is its Ki below 30 nM?
Ans: no (0)

Q: A record lists `CCN(Cc1ccc(-c2cc(S(=O)(=O)CC)ccc2OC)[nH]1)[C@H](C)c1ccccc1` . Is its Ki below 30 nM?
Ans: yes (1)

Q: A record lists `CCN(Cc1ccc(-c2cc(S(=O)(=O)CC)ccc2OC)[nH]1)Cc1ccccc1Cl` . Is its Ki below 30 nM?
Ans: yes (1)

Q: A record lists `CCN(Cc1cccc(C)c1)Cc1ccc(-c2cc(S(=O)(=O)CC)ccc2OC)[nH]1` . Is its Ki below 30 nM?
Ans: yes (1)

Q: A record lists `CCN(Cc1ccc(-c2cc(S(=O)(=O)CC)ccc2OC)[nH]1)[C@@H](C)c1ccccc1` . Is its Ki below 30 nM?
Ans: yes (1)

Q: A record lists `CCN(Cc1ccc(Cl)cc1)Cc1ccc(-c2cc(S(=O)(=O)CC)ccc2OC)[nH]1` . Is its Ki below 30 nM?
Ans: yes (1)

Q: A record lists `CCN(Cc1ccc(C)cc1)Cc1ccc(-c2cc(S(=O)(=O)CC)ccc2OC)[nH]1` . Is its Ki below 30 nM?
Ans: yes (1)

Q: A record lists CCN(Cc1ccc(-c2cc(S(=O)(=O)CC)ccc2OC)[nH]1)C1CCCc2ccccc21 (stereo not drawn) . Is its Ki below 30 nM?
Ans: yes (1)

Q: A record lists CCN(Cc1ccc(-c2cc(S(=O)(=O)CC)ccc2OC)[nH]1)C1CCc2ccccc21 (stereo not drawn) . Is its Ki below 30 nM?
Ans: yes (1)

Q: A record lists `CCN(Cc1ccc(-c2cc(S(=O)(=O)CC)ccc2OC)[nH]1)Cc1ccccc1OC` . Is its Ki below 30 nM?
Ans: yes (1)

Q: A record lists `CCN(Cc1ccc(OC)c(OC)c1)Cc1ccc(-c2cc(S(=O)(=O)CC)ccc2OC)[nH]1` . Is its Ki below 30 nM?
Ans: no (0)

Q: A record lists CCS(=O)(=O)c1ccc(OC)c(-c2ccc(CN3CCCCCC3c3ccc(OC)cc3)[nH]2)c1 (stereo not drawn) . Is its Ki below 30 nM?
Ans: yes (1)

Q: A record lists `CCN(Cc1cccc(OC)c1)Cc1ccc(-c2cc(S(=O)(=O)CC)ccc2OC)[nH]1` . Is its Ki below 30 nM?
Ans: no (0)

Q: A record lists CCS(=O)(=O)c1ccc(OC)c(-c2ccc(CN3CCCCCC3c3ccc(C)cc3)[nH]2)c1 (stereo not drawn) . Is its Ki below 30 nM?
Ans: yes (1)

Q: A record lists `CCN(Cc1cccc(Cl)c1)Cc1ccc(-c2cc(S(=O)(=O)CC)ccc2OC)[nH]1` . Is its Ki below 30 nM?
Ans: yes (1)

Q: A record lists `CCN(Cc1ccc2c(c1)OCO2)Cc1ccc(-c2cc(S(=O)(=O)CC)ccc2OC)[nH]1` . Is its Ki below 30 nM?
Ans: yes (1)

Q: A record lists CCS(=O)(=O)c1ccc(OC)c(-c2ccc(C3CCCN3Cc3ccccc3)[nH]2)c1 (stereo not drawn) . Is its Ki below 30 nM?
Ans: no (0)

Q: A record lists `CCN1[C@H](c2ccccc2)CC[C@H]1c1ccc(-c2cc(S(=O)(=O)CC)ccc2OC)[nH]1` . Is its Ki below 30 nM?
Ans: no (0)

Q: A record lists `CCN(Cc1ccc(OC)cc1)Cc1ccc(-c2cc(S(=O)(=O)CC)ccc2OC)[nH]1` . Is its Ki below 30 nM?
Ans: yes (1)

---

target: UniProt P35462
Test Readout: pKi
pKi here: minus log base 10 of the concentration, concentration in moles per litre.

Look over these answered cases.
| Compound | Recorded Measurement |
| --- | --- |
| CCS(=O)(=O)c1ccc(OC)c(-c2ccc(CN3CCCCCC3c3ccc(C)cc3)[nH]2)c1 (stereo not drawn) | 9.10 |
| CCN(Cc1ccc(OC)c(OC)c1)Cc1ccc(-c2cc(S(=O)(=O)CC)ccc2OC)[nH]1 | 7.90 |

Q: Recorded pKi for `CCN1[C@H](c2ccccc2)CC[C@H]1c1ccc(-c2cc(S(=O)(=O)CC)ccc2OC)[nH]1` , please?
Ans: 8.00

Q: Recorded pKi for CCS(=O)(=O)c1ccc(OC)c(-c2ccc(C3CCCN3Cc3ccccc3)[nH]2)c1 (stereo not drawn) , please?
Ans: 8.00
